- Test system: Osteoblast
- protocolSummary: Increase in ALP activity in mouse primary osteoblasts at 20 uM relative to control
- Assay type: functional
measuredParameter: Activity (%)
Express the result in % but write the number alone.

What value of Activity has been recorded for this entry: "O=c1c(-c2ccc(O)cc2)coc2cc(O)ccc12"
128.1

What value of Activity has been recorded for this entry: "COc1cc(O)c2c(=O)cc(-c3ccc(OC)c(-c4c(OC)cc(O)c5c(=O)cc(-c6ccc(O)cc6)oc45)c3)oc2c1"
122

What value of Activity has been recorded for this entry: "COc1ccc(-c2cc(=O)c3c(O)cc(OC)c(-c4cc(-c5cc(=O)c6c(O)cc(OC)cc6o5)ccc4OC)c3o2)cc1"
149.5

What value of Activity has been recorded for this entry: "COc1cc(O)c2c(=O)cc(-c3ccc(OC)c(-c4c(O)cc(O)c5c(=O)cc(-c6ccc(O)cc6)oc45)c3)oc2c1"
39.9

What value of Activity has been recorded for this entry: "COc1ccc(-c2cc(=O)c3c(O)cc(O)cc3o2)cc1-c1c(OC)cc(O)c2c(=O)cc(-c3ccc(O)cc3)oc12"
73.5

What value of Activity has been recorded for this entry: "COc1ccc(-c2cc(=O)c3c(O)cc(O)c(-c4cc(-c5cc(=O)c6c(O)cc(OC)cc6o5)ccc4OC)c3o2)cc1"
153

What value of Activity has been recorded for this entry: "COc1ccc(-c2cc(=O)c3c(O)cc(O)cc3o2)cc1-c1c(O)cc(O)c2c(=O)cc(-c3ccc(O)cc3)oc12"
130.6

Reference source: ChEMBL document CHEMBL1147800
